System: T-47D breast
Assay: NCI-60 one-dose screen, 48 h
Conditions: 10 µM unless noted
The panel holds about 83,000 compounds, 20% with a hit somewhere; the sample as a whole holds those more often. Activity calls are given as the source filed them. The calls were made as follows: active = growth percent below 10; inactive = the rest.
Pick one and only one: active, inactive

In this assay, the call recorded for Cc1sc2nc(NCCc3cccs3)[nH]c(=O)c2c1C was what? inactive

In this assay, the call recorded for C/C(=C\CCc1ccoc1)CC/C=C(\C)CCCN1CCSCC1 was what? inactive

In this assay, the call recorded for O=C(NN1C(=O)c2cc(C(=O)O)c(C(=O)O)cc2C1=O)c1ccncc1 was what? inactive

In this assay, the call recorded for CCCCCCC(CC#N)(CCC)CCCC (stereo not given) was what? inactive

In this assay, the call recorded for COc1cc(C(=O)c2cc3c(cc2C)OCO3)cc(OC)c1OC was what? inactive

In this assay, the call recorded for COc1ccc2nc(-c3ccc(Cl)cc3)cc(-c3nnc(SCC(=O)Nc4ccc(C(C)=O)cc4)n3-c3ccccc3)c2c1 was what? inactive

In this assay, the call recorded for COC(=O)[C@H](Cc1cn(C)cn1)NC(=O)[C@H](Cc1ccccc1)NC(=O)Nc1cc(C(F)(F)F)cc(C(F)(F)F)c1 was what? active

In this assay, the call recorded for O=C1CNc2cc(Cl)ccc2N1 was what? inactive

In this assay, the call recorded for O=C1/C(=C/c2ccccc2O)C(=S)SN1Cc1ccco1 was what? inactive

In this assay, the call recorded for Cc1ncc(C(=O)Nc2ccc(CN3CCN(C)CC3)c(C(F)(F)F)c2)cc1C#Cc1cncc2ncccc12 was what? inactive

In this assay, the call recorded for [N-]=[N+]=NCc1cccc(/C(O)=C/C(=O)C(=O)O)c1 was what? inactive

In this assay, the call recorded for CN[C@@H]1C(OC2[C@H](O[C@H]3[C@H](O)[C@@H](O)[C@H](N=C(N)N)[C@@H](O)[C@@H]3N=C(N)N)OC(C)[C@]2(O)CO)OC(CO)C(O)C1O (stereo not given in full) was what? inactive

In this assay, the call recorded for COc1ccc(-c2cc(-c3cccnc3)nc(S(=O)(=O)CC(=O)Nc3ccc(C)cc3)c2C#N)cc1OC was what? inactive

In this assay, the call recorded for CN1C(=O)C(C2=NN(C=O)C(c3ccc(F)cc3)C2)C(=O)N(C)C1=O (stereo not given) was what? inactive

In this assay, the call recorded for COc1ccc(-c2cc(-c3nnc(SCC(=O)Nc4ccc(C(C)=O)cc4)n3-c3ccccc3)c3ccccc3n2)cc1OC was what? inactive

In this assay, the call recorded for O=C1/C(=C/c2ccc(F)cc2)Cc2ccccc21 was what? inactive

In this assay, the call recorded for Nc1c(C(=O)Nc2cccc(Cl)c2)sc2nc3c(cc12)C(O)CCC3 (stereo not given) was what? inactive

In this assay, the call recorded for CC(=O)N1N=C(c2ccc(C(F)(F)F)cc2)CC1c1ccc2c(c1)OCO2 (stereo not given) was what? inactive

In this assay, the call recorded for COC(=O)CC1=C(c2ccc([N+](=O)[O-])cc2)CCC1=O was what? inactive

In this assay, the call recorded for O=C1c2cccc(NCCN=Cc3ccccc3O)c2C(=O)c2c(NCCN=Cc3ccccc3O)cccc21 was what? inactive

---

Test system: OVCAR-3 ovarian
Test: NCI-60 one-dose screen, 48 h
Conditions: 10 µM unless noted
The panel holds about 83,000 compounds, 20% with a hit somewhere; the sample as a whole holds those more often. Active and inactive are the calls of the source. How the source made its calls: active means growth percent below 10; inactive means the rest.
Pick one and only one: True (active), False (inactive)

In this assay, the call recorded for COc1cc(/C=C/c2cc(/C=C/c3ccc(O)c(OC)c3)n(C(=O)Cc3ccccc3)n2)ccc1O was what? True

In this assay, the call recorded for CCOC(=O)c1cc2oc(/C=C/c3cc(=O)c4cc(Cl)ccc4o3)cc2[nH]1 was what? False

In this assay, the call recorded for COc1ccc(Cl)cc1Nc1nc(C(F)(F)F)ccc1C(=O)N/N=C/c1c(Cl)cccc1Cl was what? True

In this assay, the call recorded for O=C(COc1ccc(/C=C2\Oc3ccc4ccccc4c3C2=O)cc1)c1ccc(Cl)cc1 was what? False

In this assay, the call recorded for COc1ccc2c(c1)CC/C(=C\c1ccc(OCC(=O)Nc3nc4ccccc4s3)cc1)C2=O was what? False

In this assay, the call recorded for N#CC(C#N)C(C#N)C#N was what? False

In this assay, the call recorded for CC1CN(CC(O)c2ccc(Br)cc2)CCO1 (stereo not drawn) was what? False

In this assay, the call recorded for CCOC(=O)Nc1ccc2c3c(cccc13)-c1ccccc1-2 was what? True

In this assay, the call recorded for CC1CN(C2CCCCC2)C(=O)NC1=O (stereo not drawn) was what? False

In this assay, the call recorded for C[C@H]1C(=O)N2c3ccccc3[C@@]3(O)C[C@@H](n4cnc5ccccc5c4=O)C(=O)N1[C@@H]23 was what? False

In this assay, the call recorded for CC(NC(N)=S)c1ccccc1 (stereo not drawn) was what? False

In this assay, the call recorded for O=C(CNC(=O)c1cccc2ccccc12)Nc1ccccc1Oc1cccc(O)c1 was what? True

In this assay, the call recorded for O=C(Nc1ccccc1S)c1ccccc1 was what? False

In this assay, the call recorded for Cc1nn(-c2nc3ccccc3s2)c(C)c1Oc1ccccc1O was what? False

In this assay, the call recorded for CCOC(=O)C(Br)=P(c1ccccc1)(c1ccccc1)c1ccccc1 was what? False

In this assay, the call recorded for CC(=O)c1ccc(NS(=O)(=O)c2ccc([N+](=O)[O-])cc2)cc1 was what? False

In this assay, the call recorded for CC(=O)N1N=C(c2ccc(Nc3ccnc4cc(Cl)ccc34)cc2)CC1c1ccc(Cl)cc1 (stereo not drawn) was what? False

In this assay, the call recorded for COc1cccc(-c2nc3cc(NC(=O)c4ccc(Cl)c(C#N)c4)ccc3o2)c1 was what? True

In this assay, the call recorded for NS(=O)(=O)c1cc2c(cc1Cl)NC=NS2(=O)=O was what? False

In this assay, the call recorded for CC(=O)OCC(=O)[C@@]1(O)CC[C@H]2[C@@H]3CCC4=CC(=O)CC[C@]4(C)[C@@]3(F)[C@@H](O)C[C@@]21C was what? False

In this assay, the call recorded for Cc1cc2c(cc1C)[n+](Cc1ccc3ccccc3n1)cn2Cc1ccc2ccccc2n1 was what? True

In this assay, the call recorded for CCOC(=O)c1sc(NC(=O)COc2ccc(/C=C3\CCc4cc(OC)ccc4C3=O)cc2)nc1C was what? False

In this assay, the call recorded for O=C1Nc2ccc(Cl)cc2[C@@](C#CC2CC2)(C(F)(F)F)O1 was what? False

In this assay, the call recorded for Clc1ccc(C2=NN(c3ccc(Cl)cc3)C(c3cccc(Nc4ccnc5cc(Cl)ccc45)c3)C2)cc1 (stereo not drawn) was what? False

In this assay, the call recorded for c1ccc(-c2nc(Nc3nccnn3)c3ccccc3n2)cc1 was what? False

In this assay, the call recorded for OC(c1cc(-c2cccc(Cl)c2)nc2ccccc12)C1CCCCN1 (stereo not drawn) was what? True

In this assay, the call recorded for Cc1[nH]c(=O)[nH]c(=O)c1CCSSCCc1c(C)[nH]c(=O)[nH]c1=O was what? False

In this assay, the call recorded for COCCCNS(=O)(=O)c1ncnc2nc[nH]c12 was what? False

In this assay, the call recorded for Cc1ccc(-c2csc(N)n2)cc1 was what? False

In this assay, the call recorded for Nc1ccc(N=Nc2ccccc2)cc1[N+](=O)[O-] was what? False

In this assay, the call recorded for CC(C)=CCNc1ncnc2c1ncn2C1OC(COP(=O)(O)O)C(O)C1O (stereo not drawn) was what? True

In this assay, the call recorded for Cn1cnc([N+](=O)[O-])c1Sc1nc(N)nc2nc[nH]c12 was what? False

In this assay, the call recorded for COc1ccc2c(c1)c(CC(=O)[Se]C)c(C)n2C(=O)c1ccc(Cl)cc1 was what? True

In this assay, the call recorded for O=C(CC1Sc2ccccc2NC1=O)NNc1cccc(Cl)c1Cl (stereo not drawn) was what? False

In this assay, the call recorded for O=c1[nH]c(SCc2ccccc2)nc2nc(Nc3ccc(NC(=S)Nc4ccccc4)cc3)nc(-c3ccc(O)cc3O)c12 was what? False

In this assay, the call recorded for N#Cc1c(-c2ccccc2)cc(-c2ccccc2)n(CC(=O)O)c1=O was what? False

In this assay, the call recorded for CC1(C)CC2(C)CC(=O)C1C(C(=O)O)C2C(=O)O (stereo not drawn) was what? False

In this assay, the call recorded for O=C(Nc1nc2c(C(F)(F)F)cccc2s1)c1cc(Cl)ccc1O was what? False

In this assay, the call recorded for CSc1nc2nc3c(c(-c4ccc(C)cc4)c2c(=O)[nH]1)CN(C)C/C3=C\c1ccc(C)cc1 was what? False

In this assay, the call recorded for O=C1/C(=C/c2cccc(Cl)c2)CCc2ccccc21 was what? False

In this assay, the call recorded for COc1cc(/C=C/C(=O)C(C(=O)/C=C/c2ccc(OC(=O)CCNc3nnc(C)s3)c(OC)c2)C(=O)CCNc2nnc(C)s2)ccc1OC(=O)CCNc1nnc(C)s1 was what? True

In this assay, the call recorded for COc1ccc2c(c1)CC[C@@H]1[C@@H]2CC[C@]2(C)[C@@H](O)C(=O)C[C@@H]12 was what? False

In this assay, the call recorded for O=c1sc2ncnc3ncn1c32 was what? False
